Biological target: T1, Human EphA2 (Ecto) (Human, UniProt P29317 24-537)
T1 construct: extracellular domain
T1 sequence (P29317 24-537): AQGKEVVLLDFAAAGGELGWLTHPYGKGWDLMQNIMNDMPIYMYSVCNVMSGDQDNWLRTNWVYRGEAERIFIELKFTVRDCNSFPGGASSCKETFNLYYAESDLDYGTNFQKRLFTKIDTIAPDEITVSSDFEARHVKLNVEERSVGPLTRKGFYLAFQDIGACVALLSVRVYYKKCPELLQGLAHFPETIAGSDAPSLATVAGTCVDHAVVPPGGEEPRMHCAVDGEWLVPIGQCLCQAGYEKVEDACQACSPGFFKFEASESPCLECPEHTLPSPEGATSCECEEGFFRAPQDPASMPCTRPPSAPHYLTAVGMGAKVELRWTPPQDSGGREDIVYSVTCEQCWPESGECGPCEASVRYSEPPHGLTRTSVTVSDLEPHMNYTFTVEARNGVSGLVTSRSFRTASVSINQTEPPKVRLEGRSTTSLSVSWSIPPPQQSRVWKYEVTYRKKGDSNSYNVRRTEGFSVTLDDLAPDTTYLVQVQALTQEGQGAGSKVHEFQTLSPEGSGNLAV
Experiment: FP competition, tracer Compound 18
Starred links: 1 amine or outer side, 2 acyl side, 3 side chain; linkers in the order of their positions; H or OH if unused. Positions of bridges follow the written chain, without caps; N, C: chain ends. Non-standard residues stand in square brackets, D forms with d. Primed or numbered codes have the meaning given here. No end group written: not given here. TBMB′ = 1,3,5-tris(bromomethyl)benzene, 1,3,5-tris(methylene)benzene core, three thioethers to Cys; 1Nal = N[C@@H](Cc1cccc2ccccc12)C(=O)O; TBMB = c1c(C[*:1])cc(C[*:3])cc1C[*:2]; Gly(cPr) = N[C@H](C(=O)O)C1CC1; Tle = CC(C)(C)[C@H](N)C(=O)O; Aib = CC(C)(N)C(=O)O; Sar = CNCC(=O)O
I'd appreciate it if you marked entries criterion met when Ki is lower than 4 nM and criterion not met when it is not.

Binder: ADVHCPWGPFWCPVN[dA]PGCA (linker 5-12-19 via TBMB) [Bicycle Compound 156]
Class Label: criterion not met
--
Binder: Ac-[Sar][Sar]A[dD][Gly(cPr)]TCPWGPFWCPVNRPGC (linker 7-14-21 via TBMB′) [Bicycle Compound 162]
Class Label: criterion met
--
Binder: Ac-[Sar][Sar]A[dD]VTCPWGPFWCPVNR[Aib][dD]C (linker 7-14-21 via TBMB′) [Bicycle Compound 177]
Class Label: criterion not met
--
Binder: [Sar][Sar]AHDAPCPWGPFWCPVNRPGC (linker 8-15-22 via TBMB) [Bicycle Compound 214]
Class Label: criterion not met
--
Binder: ADVHCPWGPFWCPV[dA]RPGCA (linker 5-12-19 via TBMB) [Bicycle Compound 155]
Class Label: criterion met
--
Binder: Ac-[Sar][Sar]A[dD]VTCP[1Nal]G[Aib]F[1Nal]CPVNR[Aib]GC (linker 7-14-21 via TBMB′) [Bicycle Compound 181]
Class Label: criterion met
--
Binder: ADVHCP[1Nal]GPFWCPVNRPGCA (linker 5-12-19 via TBMB) [Bicycle Compound 150]
Class Label: criterion met
--
Binder: Ac-[Sar][Sar]A[dH]DVPCPWG[Aib]FWCP[Tle]NR[Aib]GC (linker 8-15-22 via TBMB) [Bicycle Compound 233]
Class Label: criterion not met
--
Binder: [Sar][Sar]A[dH]DVPCPWGPFWCPVNRPGC (linker 8-15-22 via TBMB) [Bicycle Compound 197]
Class Label: criterion met
--
Binder: AHDVPCP[1Nal]GPFWCPVNRPGCA (linker 6-13-20 via TBMB′) [Bicycle Compound 187]
Class Label: criterion met
--
Binder: [Sar][Sar]AH[dE]VPCPWGPFWCPVNRPGC (linker 8-15-22 via TBMB) [Bicycle Compound 208]
Class Label: criterion met
